Hi! I'm sharing some IC50 results obtained with CLK4 (Homo sapiens).
Sequence (Q9HAZ1 whole entry, species assumed): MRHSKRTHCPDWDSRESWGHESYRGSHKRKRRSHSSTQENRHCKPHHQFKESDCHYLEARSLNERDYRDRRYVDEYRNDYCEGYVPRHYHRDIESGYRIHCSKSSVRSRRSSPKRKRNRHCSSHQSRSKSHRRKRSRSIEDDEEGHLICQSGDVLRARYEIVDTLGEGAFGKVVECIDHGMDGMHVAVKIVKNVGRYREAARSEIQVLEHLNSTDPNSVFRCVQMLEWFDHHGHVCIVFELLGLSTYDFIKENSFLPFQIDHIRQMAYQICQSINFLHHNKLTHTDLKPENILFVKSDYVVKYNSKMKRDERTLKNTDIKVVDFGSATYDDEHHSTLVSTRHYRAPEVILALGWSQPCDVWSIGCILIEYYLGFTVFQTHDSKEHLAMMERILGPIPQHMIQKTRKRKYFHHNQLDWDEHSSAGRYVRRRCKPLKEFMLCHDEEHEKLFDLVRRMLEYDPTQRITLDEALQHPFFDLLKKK
Give bare numbers, in nM.

>  <COMPOUND>
[2H]C1([2H])N(C)C([2H])([2H])C([2H])([2H])N(c2ccc(OC(F)(F)F)c(Nc3ncc4c(n3)-c3c(c(C(N)=O)nn3CCO)CC4)c2)C1([2H])[2H] [PR00012]

>  <UNIT TAG>
nM

>  <ASSAY RESULT>
231

$$$$

With those in mind, consider the next compound.
In: IC50 for CN1CCN(c2ccc(OC(F)(F)F)c(Nc3ncc4c(n3)-c3c(c(C(N)=O)nn3CCO)CC4)c2)CC1 [NMS-P937] ?
Out: 278
